Hi there, I'd appreciate the recorded Aβ Shift for every entry that follows.
- experimental.target: immobilized Aβ fibrils (Homo sapiens, UniProt P05067)
- Sequence (P05067 672-713 limits assumed): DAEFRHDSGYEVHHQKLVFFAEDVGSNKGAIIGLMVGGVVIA
- test.description: FAC-MS assay of free Aβ monomer (indicator) binding to immobilized Aβ fibrils in the presence of test compounds
- condition.summary: FAC-MS screen; shift of free Aβ monomer breakthrough on immobilized Aβ fibrils in presence of compound; scale not given
Give bare numbers.

Here's what some known entries look like.
compound	observed.property	quantitative.readout
CC1CCC(COC(=O)C[N+]2(C)CCCCC2)C(C)C1 (stereo not drawn)	Aβ Shift	2
CC12CC3(C)CC(C)(C1)CC(C(=O)NC(C)(C)CO)(C2)C3	Aβ Shift	1
COC(=O)CNC(=O)C12CC3(C)CC(C)(CC(C)(C3)C1)C2	Aβ Shift	1
CC1CCCC(N2CNc3nc4ccccc4n3C2)C1C (stereo not drawn)	Aβ Shift	2
CN(C)C(=O)C12CC3(C)CC(C)(CC(C)(C3)C1)C2	Aβ Shift	1

Here's the next entry for you.
Memo: CC(C)(C)C1CC(C(=O)O)CC(C(=O)O)C1 (stereo not drawn) , reported Aβ Shift: 0

* * *

Hi there, I'd appreciate the recorded % of Shift for every entry that follows.
- experimental.target: immobilized Aβ fibrils (Homo sapiens)
- test.description: FAC-MS assay of free Aβ monomer (indicator) binding to immobilized Aβ fibrils in the presence of test compounds
- condition.summary: FAC-MS % shift of breakthrough time of free Aβ1-42 monomer (1 μM) on immobilized Aβ fibrils; compounds 1-10 μM in 20 mM NH4OAc, 1% DMSO; void marker M3
One number for each entry, in %.

Each compound below has a reported value. Please supply its % of Shift.
1. COC1C(O)C2OC3(CCCCC3)OC2C2OC3(CCCCC3)OC12 (racemic) [Compound 53226-6, reference compound]
2. CC(C)(C)C(=O)OC1C(O)C(OC(=O)C(C)(C)C)C(OC(=O)C(C)(C)C)C(OC(=O)C(C)(C)C)C1OC(=O)C(C)(C)C (stereo not drawn)
3. O[C@H]1[C@H](O)[C@@H](O)[C@@H]2O[C@@H]2[C@@H]1O [Compound C5424, Conduritol B epoxide, reference compound]
4. OC1C(O)C(O)C(O)C(O)C1O (stereo not drawn) [Chiro, chiro-inositol, reference compound]

1. 2
2. 5
3. 1
4. 2

Each compound below has a reported value. Please supply its % of Shift.
1. O=C(O)[C@]1(O)C[C@@H](O)[C@@H](O)[C@H](O)C1 [Compound 138622, 1R,3R,4R,5R-Quinic acid, reference compound]
2. O=S(=O)([O-])OC1C(OS(=O)(=O)[O-])C(OS(=O)(=O)[O-])C(OS(=O)(=O)[O-])C(OS(=O)(=O)[O-])C1OS(=O)(=O)[O-].[K+].[K+].[K+].[K+].[K+].[K+] (stereo not drawn) [Compound I-6005, myo-inositol hexasulfate hexapotasium, reference compound]

1: 3; 2: 4

* * *

Hi there, I'd appreciate the recorded Aβ Shift for every entry that follows.
- experimental.target: immobilized Aβ fibrils (Homo sapiens, UniProt P05067)
- test.description: FAC-MS assay of free Aβ monomer (indicator) binding to immobilized Aβ fibrils in the presence of test compounds
- condition.summary: FAC-MS screen; shift of free Aβ monomer breakthrough on immobilized Aβ fibrils in presence of compound; scale not given
Answers are plain numbers.

Here's what some known entries look like.
molecule	observed.property	quantitative.readout
CC(C)NC(=O)C12CC3(C)CC(C)(CC(C)(C3)C1)C2	Aβ Shift	1
CC1CCC(O[C@H]2C=CC(=O)O2)C(C(C)C)C1 (stereo partly drawn)	Aβ Shift	0
CC1C2CC3(C)CC1(C)CC(C1(C)CC(=O)O1)(C2)C3 (stereo not drawn)	Aβ Shift	1
CC12CC3(C)CC(C)(C1)CC(C1(C)CC(=O)O1)(C2)C3 (stereo not drawn)	Aβ Shift	0
O=C(O)C1C2CC3C(OC(=O)C31)C2Cl (stereo not drawn)	Aβ Shift	2

Each molecule below has a reported value. Please supply its Aβ Shift.
1. CN(C)CCNC(=O)C12CC3CC(C)(CC(C)(C3)C1)C2
2. CC1CCC(COC(=O)CN2CCOCC2)C(C)C1 (stereo not drawn)
3. COC(=O)[C@@H]1C[C@H](O)C[C@H](C(=O)OC)C1
4. COc1cccc(C(=O)OC2CC(C)CC(C)C2)c1 (stereo not drawn)
5. CC1CCC(C(C)(C)C)C(O)C1 (stereo not drawn)
6. CC1CCC(C(C)C)C(OC(=O)CN2CCOCC2)C1 (stereo not drawn)

1
1
1
0
1
1

Each molecule below has a reported value. Please supply its Aβ Shift.
1. CC1CCCC(NC(=O)Cn2cc3c(n2)CCCC3)C1C (stereo not drawn)
2. CC1CCC(C(C)C)C(OCC(O)CN2CCCCC2)C1 (stereo not drawn)
3. CC1CC(NS(=O)(=O)c2cccs2)CC(C)(C)C1 (stereo not drawn)
4. COCCNC(=O)NC12CC3(C)CC(C)(CC(C)(C3)C1)C2
5. CC1(C)CC2(C)CC(O)(C1)C13CCC(C)(C)CC1(C2)O3 (stereo not drawn)
6. CC12CC3(C)CC(C)(C1)CC(C(=O)NCC(=O)O)(C2)C3
7. BrC1CC2OC2CC1Br (stereo not drawn)
8. Cc1ccc(C(C)(C)CC(C)NC2CCCC(C)C2C)o1 (stereo not drawn)

1
1
2
1
0
1
0
1

* * *

- experimental.target: immobilized Aβ fibrils (Homo sapiens)
- test.description: FAC-MS assay of free Aβ monomer (indicator) binding to immobilized Aβ fibrils in the presence of test compounds
- condition.summary: FAC-MS screen; shift of free Aβ monomer breakthrough on immobilized Aβ fibrils in presence of compound; scale not given
observed.property: Aβ Shift
Answers are plain numbers.

molecule	experimental.target	quantitative.readout
CC1CCCC(NC(=O)c2ccccc2C(=O)O)C1C (centres unmarked)	immobilized Aβ fibrils (Homo sapiens)	2

Each molecule below has a reported value. Please supply its Aβ Shift.
1. CCCC1CCC(c2ccc(C(C)=O)cc2)CC1C (centres unmarked)
2. O=C(O)C1(O)CC(O)C(O)C(O)C1 (centres unmarked)

[1, 1]

Each molecule below has a reported value. Please supply its Aβ Shift.
1. Cc1cc(NC(=O)C23CC4CC(C)(CC(C)(C4)C2)C3)no1
2. CC1CCCC(n2cnc3cc(C(=O)O)ccc32)C1C (centres unmarked)

1
1

Each molecule below has a reported value. Please supply its Aβ Shift.
1. Cc1nn(CC(=O)NC2CCCC(C)C2C)c2ccccc12 (centres unmarked)
2. Cl.NC1C2CC3C1C3C2Cl (centres unmarked)
3. CC12CC3(C)CC(C)(C1)CC(NC(=O)NC(C)(C)C)(C2)C3

1
1
1

Each molecule below has a reported value. Please supply its Aβ Shift.
1. CC[N+](CC)(CC)CCCOC1CC(C)CCC1C(C)C (centres unmarked)
2. NC12C3C4C5C1C2C(Br)(C43)C51OCCO1 (centres unmarked)

1: 2; 2: 0

Memo: `O=C(O[C@@H]1[C@@H](OC(=O)c2ccccc2)[C@H](OC(=O)c2ccccc2)[C@H](O)[C@H](OC(=O)c2ccccc2)[C@H]1OC(=O)c1ccccc1)c1ccccc1` , reported Aβ Shift: 2

* * *

- experimental.target: immobilized Aβ fibrils (Homo sapiens)
- test.description: FAC-MS assay of free Aβ monomer (indicator) binding to immobilized Aβ fibrils in the presence of test compounds
- condition.summary: FAC-MS screen; shift of free Aβ monomer breakthrough on immobilized Aβ fibrils in presence of compound; scale not given
observed.property: Aβ Shift
Answers are plain numbers.

Here's what some known entries look like.
compound	quantitative.readout
COc1cccc(OC)c1C(=O)OC1CC(C)CC(C)C1 (stereo not drawn)	0
CC1C2CC3(C)CC(C(=O)O)(C2)CC1(C)C3 (stereo not drawn)	1
CC1CCCC(NC(=O)c2csc3c2CCCC3)C1C (stereo not drawn)	2
O=C(O)C1CC(C(=O)O)C(C(=O)O)CC1C(=O)O (stereo not drawn)	1
CN(C)CCOC(=O)C12CC3(C)CC(C)(CC(C)(C3)C1)C2	2

Here's the next entry for you.
Memo: CC1CCCC(NC(=O)Cc2cn(C)c3ccccc23)C1C (stereo not drawn) , reported Aβ Shift: 2

* * *

Hi there, I'd appreciate the recorded Aβ Shift for every entry that follows.
- experimental.target: immobilized Aβ fibrils (Homo sapiens, UniProt P05067)
- test.description: FAC-MS assay of free Aβ monomer (indicator) binding to immobilized Aβ fibrils in the presence of test compounds
- condition.summary: FAC-MS screen; shift of free Aβ monomer breakthrough on immobilized Aβ fibrils in presence of compound; scale not given

Here's what some known entries look like.
compound	result
CC(=O)c1[nH]c(C)c(C(=O)NC2CCCC(C)C2C)c1C (stereo not drawn)	1
CNC(=O)C12CC3(C)CC(C)(CC(C)(C3)C1)C2	1
CC12CC3CC(C)(C1)CC(C(=O)Nc1nnn[nH]1)(C3)C2	1
CC1CC(NC(=O)c2nc[nH]n2)CC(C)(C)C1 (stereo not drawn)	1
CC12CC3(C)CC(CC(N)=O)(C1)CC(C(N)=O)(C2)C3	0

Here's the next entry for you.
Memo: CC(CCc1ccc(O)cc1)NC1CCCC(C)C1C (stereo not drawn) , reported Aβ Shift: 1
